Measurement context: Ebola virus entry assay, ratio channel
The source made the active and inactive calls. The rule behind the calls is not given here.
Reported metric: AC50

**Q:** Requested field: AC50. Item: CCN(CC)CCNc1ccc(CO)c2sc3ccccc3c(=O)c12
**A:** 14.1 µM (active)

**Q:** Requested field: AC50. Item: COc1cc(C[C@@H](C)N)c(OC)cc1Br
**A:** 31.6 µM (active)

###

Test summary: Primary qHTS for inhibitors of MERS-S pseudo-typed particle cell entry (AID 1479149); note: nearly all actives have a fitted effect of over 60% in size
Measurement context: MERS-S pseudotyped particle entry, luciferase; series mostly up to 57.1 µM
Inconclusive results are not listed. Activity calls are given as the source filed them. Calls follow the shape of the full dose curve.
I would appreciate it if you answered using one of these outcomes: active, inactive

Worked set:
- Compound: "COc1ccc2cc3[n+](cc2c1OC)CCc1cc2c(cc1-3)OCO2"
  Class name: "active"
- Compound: "O=C(N[C@H]1N=C(c2ccccc2F)c2cccc3c2N(CC3)C1=O)c1cc2ccccc2[nH]1"
  Class name: "inactive"
- Compound: "C[C@H]1C[C@H]2[C@@H]3CCC4=CC(=O)C=C[C@]4(C)[C@H]3C(=O)C[C@]2(C)[C@@]1(O)C(=O)CO"
  Class name: "inactive"

**Q:** Recorded test call requested for C#C[C@]1(O)C=C[C@H]2[C@@H]3CCC4=CC(=O)CC[C@@H]4[C@H]3CC[C@@]21CC
**A:** inactive

**Q:** Recorded test call requested for CC1CC(=O)NN=C1c1ccc(NCC(C)(C)NCC(O)COc2cc(Cl)ccc2C#N)cc1 (stereo not given)
**A:** inactive

###

Measurement context: Ebola virus entry assay, reporter ratio channel; Channel type: primary
Calls of active or inactive are those of the source. How the calls were made is not given here.
I would appreciate it if you answered using one of these outcomes: 1.0 (active), 0.0 (inactive)

Worked set:
- Compound: "O=C(CCCN1CCN(c2ccc(F)cc2)CC1)NC1c2ccccc2CSc2ccccc21 (stereo not drawn)"
  Class name: 1.0
- Compound: "CCN(CCCc1ccccc1)CCCc1ccccc1"
  Class name: 1.0
- Compound: "CCCCCCCCC(=O)NCc1ccc(O)c(OC)c1"
  Class name: 0.0
- Compound: "O=C1c2ccccc2C(=O)C1c1ccc(Br)cc1"
  Class name: 0.0
- Compound: "CCN(CC)CCOCCOC(=O)C1(c2ccccc2)CCCC1"
  Class name: 1.0
- Compound: "CCOC(=O)OC(C)OC(=O)[C@@H]1N2C(=O)[C@@H](NC(=O)[C@H](N)c3ccccc3)[C@H]2SC1(C)C (stereo partly drawn)"
  Class name: 0.0
- Compound: "O=C(CCCN1CCC(O)(c2ccc(Br)cc2)CC1)c1ccc(F)cc1"
  Class name: 1.0

**Q:** Recorded test call requested for Cc1ccc(O)c(-n2nc3ccccc3n2)c1
**A:** 0.0

###

Tested on: DFO2036
Test summary: qHTS profiling for inhibitors of Plasmodium falciparum proliferation (AID 504749); note: nearly all actives have a fitted effect of over 60% in size; note: potency is the fitted concentration of half-maximal effect
Measurement context: P. falciparum in erythrocytes, SYBR Green DNA, 72 h; series mostly up to 28.7 µM
Description: NIH National Institute of Allergy and Infectious Diseases [NIAID] NIH Chemical Genomics Center [NCGC] […] Because mature erythrocytes lack DNA, only Plasmodium-derived DNA is detected. NCGC Assay Protocol Summary: The SYBR Green viability assay was adapted from a method described previously (Plouffe et al., 2008). […] The following morning, fluorescence intensity at 485(14) nm excitation and 535(25) nm emission wavelengths was measured on an EnVision (Perkin Elmer) plate reader. […]
Results filed as inconclusive are left out. Calls of active or inactive are those of the source. Calls come from the whole dose curve; as a rule, active = well fitted inhibition curve with a large enough effect; inconclusive = small, poorly fitted or top-dose-only effect; inactive = flat fitted curve, though single readings scatter.
Reported metric: Potency

Recorded Potency, per entry:
- Molecule: "CC(C)(O)C(Cl)(Cl)Cl"
  Target entity: "DFO2036"
  Measured: "3.55 µM (active)"
- Molecule: "CCC(=O)O[C@H]1CC[C@H]2[C@@H]3CCC4=CC(=O)CC[C@]4(C)[C@H]3CC[C@]12C"
  Target entity: "DFO2036"
  Measured: "inactive"
- Molecule: "c1ccc2nc(N3CCNCC3)ccc2c1"
  Target entity: "DFO2036"
  Measured: "inactive"
- Molecule: "CNC(=O)Oc1cccc2ccccc12"
  Target entity: "DFO2036"
  Measured: "inactive"
- Molecule: "Cc1ncc2n1-c1ccc(Cl)cc1C(c1ccccc1F)=NC2"
  Target entity: "DFO2036"
  Measured: "inactive"
- Molecule: "Cc1c(Cl)c(=O)oc2cc(OP(=O)(OCCCl)OCCCl)ccc12"
  Target entity: "DFO2036"
  Measured: "10 µM (active)"
- Molecule: "ClC1=C(Cl)C2(Cl)C(CBr)CC1(Cl)C2(Cl)Cl (stereo not drawn)"
  Target entity: "DFO2036"
  Measured: "inactive"
- Molecule: "Clc1ccc(CO/N=C(\\Cn2ccnc2)c2ccc(Cl)cc2Cl)c(Cl)c1"
  Target entity: "DFO2036"
  Measured: "3.98 µM (active)"

**Q:** Requested field: Potency. Item: C[C@]12CC[C@H]3[C@@H](CC=C4C[C@@H](O)CC[C@@]43C)[C@@H]1CC[C@@H]2O
**A:** inactive

**Q:** Requested field: Potency. Item: CC(C)[N+](C)(CCC(C(N)=O)(c1ccccc1)c1ccccc1)C(C)C
**A:** inactive

**Q:** Requested field: Potency. Item: Oc1ccc2[nH]cc(CCCCN3CC=C(c4ccccc4)CC3)c2c1
**A:** 10 µM (active)

**Q:** Requested field: Potency. Item: C[C@]12Cc3nonc3C[C@@H]1CC[C@@H]1[C@@H]2CC[C@@]2(C)[C@H]1CC[C@]2(C)O
**A:** inactive

**Q:** Requested field: Potency. Item: Cc1ccc(N=CN(C)C=Nc2ccc(C)cc2C)c(C)c1
**A:** inactive
